The measured values listed here are drawn from ChEMBL document CHEMBL2218924.

- TESTED_SYSTEM: Vascular endothelial growth factor receptor 1 (Homo sapiens) (UniProt P17948)
- Sequence (P17948 whole entry): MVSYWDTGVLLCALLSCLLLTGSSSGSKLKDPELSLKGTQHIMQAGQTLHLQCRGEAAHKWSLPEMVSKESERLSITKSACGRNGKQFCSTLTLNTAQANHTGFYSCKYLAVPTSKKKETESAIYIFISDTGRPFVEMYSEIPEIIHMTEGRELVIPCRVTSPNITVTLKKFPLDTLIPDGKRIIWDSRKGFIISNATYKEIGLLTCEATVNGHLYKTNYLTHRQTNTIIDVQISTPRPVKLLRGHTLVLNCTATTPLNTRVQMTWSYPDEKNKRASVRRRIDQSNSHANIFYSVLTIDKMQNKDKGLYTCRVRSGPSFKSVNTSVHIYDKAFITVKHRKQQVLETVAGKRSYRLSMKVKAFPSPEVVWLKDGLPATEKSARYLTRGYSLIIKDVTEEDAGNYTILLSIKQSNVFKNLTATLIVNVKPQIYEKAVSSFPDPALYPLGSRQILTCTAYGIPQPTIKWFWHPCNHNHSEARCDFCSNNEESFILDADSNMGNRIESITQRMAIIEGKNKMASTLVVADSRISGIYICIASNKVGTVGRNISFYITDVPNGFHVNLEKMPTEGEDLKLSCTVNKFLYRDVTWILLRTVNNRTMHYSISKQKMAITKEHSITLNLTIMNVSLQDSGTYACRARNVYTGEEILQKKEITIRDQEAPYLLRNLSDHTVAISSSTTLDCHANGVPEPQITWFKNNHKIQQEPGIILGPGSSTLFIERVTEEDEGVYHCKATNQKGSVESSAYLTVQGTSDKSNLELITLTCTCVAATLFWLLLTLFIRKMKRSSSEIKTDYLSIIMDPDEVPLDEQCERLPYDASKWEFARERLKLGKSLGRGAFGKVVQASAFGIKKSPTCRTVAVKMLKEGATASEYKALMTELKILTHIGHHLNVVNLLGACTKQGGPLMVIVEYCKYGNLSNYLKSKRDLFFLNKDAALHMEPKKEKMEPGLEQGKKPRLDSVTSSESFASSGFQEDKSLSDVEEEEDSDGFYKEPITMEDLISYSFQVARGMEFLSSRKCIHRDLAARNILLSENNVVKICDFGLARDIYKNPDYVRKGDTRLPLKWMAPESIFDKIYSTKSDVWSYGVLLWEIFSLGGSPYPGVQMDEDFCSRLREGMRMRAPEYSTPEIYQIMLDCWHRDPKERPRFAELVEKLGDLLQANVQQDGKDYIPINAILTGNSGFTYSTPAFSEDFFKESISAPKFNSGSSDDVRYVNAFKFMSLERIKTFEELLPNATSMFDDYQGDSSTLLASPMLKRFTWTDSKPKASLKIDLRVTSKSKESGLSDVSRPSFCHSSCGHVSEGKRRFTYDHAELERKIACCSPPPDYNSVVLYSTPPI
- STUDY_CONDITIONS: at 10 µM
Field: residual activity. Provide a value for each of the compounds that follow.
State the answer as a number, implicitly in %.

Give reported residual activity value for Cc1cncc2cccc(S(=O)(=O)N3CCCN(C(=O)CN)C[C@H]3C)c12 63

Give reported residual activity value for CC(C)n1cnc2c(NCc3ccccc3)nc(NCCCO)nc21 87

Give reported residual activity value for NC(=O)c1ccc2[nH]c(-c3ccc(Oc4ccc(Cl)cc4)cc3)nc2c1 39

Give reported residual activity value for CC(=O)O/N=C1\C(=C2\C(=O)Nc3cc(Br)ccc32)Nc2ccccc21 1

Give reported residual activity value for N#Cc1cnc2cnc(NCc3cccnc3)cc2c1Nc1ccc(F)c(Cl)c1 7

Give reported residual activity value for O=C1NC(=O)/C(=C\c2ccc3nccnc3c2)S1 78

Give reported residual activity value for CCOc1cc2ncnc(Nc3cccc(Br)c3)c2cc1OCC 6

Give reported residual activity value for CCN(CC)CCCCN1c2ccccc2Oc2ccc(Cl)cc21 112

Give reported residual activity value for Nc1ccc2ncnc(NCCc3ccc(Oc4ccccc4)cc3)c2c1 26

Give reported residual activity value for N#CC(C#N)=C(N)/C(C#N)=C/c1ccc(O)cc1 90

Give reported residual activity value for O=c1cc(-c2cccc3c2Sc2ccccc2S3)oc(N2CCOCC2)c1 85

Give reported residual activity value for Oc1n[nH]c2nnc(-c3c(-c4ccccc4)nn4ccccc34)cc12 80

Give reported residual activity value for COc1cc2ncnc(Nc3ccc(NC(=O)c4ccccc4)cc3)c2cc1OC 72

Give reported residual activity value for COc1cc2ncnc(Nc3ccc(Oc4ccccc4)cc3)c2cc1OC 4

Give reported residual activity value for CC[n+]1c(/C=C/N(C)c2ccccc2)n(-c2ccccc2)c2ccc(-c3nc4ccccc4s3)cc21 83

Give reported residual activity value for Nc1n[nH]c2nnc(-c3c(-c4ccccc4)nn4ccccc34)cc12 23

Give reported residual activity value for Cc1cc(Nc2nc(-c3ccccc3)nc3ccccc23)n[nH]1 1

Give reported residual activity value for O=c1c2ccccc2[nH]c(=S)n1CCN1CCC(=C(c2ccc(F)cc2)c2ccc(F)cc2)CC1 98

Give reported residual activity value for O=C1Nc2ccccc2/C1=C1/Nc2ccccc2/C1=N\OCCC(O)CO (configuration not stated) 0

Give reported residual activity value for Cn1cc(/C=C2\C(=O)Nc3ccc(S(N)(=O)=O)cc32)c2ccccc21 9

Give reported residual activity value for COc1ccc(CNc2nc(N(CCO)CCO)nc3c2ncn3C(C)C)cc1 55

Give reported residual activity value for CNc1cc2c(Nc3cccc(Br)c3)ncnc2cn1 58
